Test system: DU-145
Assay: NCI tumour cell line growth inhibition, 48 h
Activity calls are given as the source filed them. Rule as the data show it: active = GI50 up to about 1.1 µM and inactive = higher.
propertyLabel: GI50

Report GI50 for `CSC(=S)Nc1cccc(C)n1` please.
> 100 µM (inactive)

Report GI50 for COc1ccc(C2c3cc4c(cc3OC(N3CCCCC3)C2C)OCO4)cc1 (stereo not drawn) please.
> 100 µM (inactive)

Report GI50 for COC(=O)c1ccccc1C1CN=NC12Cc1ccc3ccccc3c1C2=O (stereo not drawn) please.
> 100 µM (inactive)

Report GI50 for `c1ccc2c(c1)[nH]c1nc3cc(-c4ccc5nc6c(nc5c4)[nH]c4ccccc46)ccc3nc12` please.
> 100 µM (inactive)

Report GI50 for CC1(C)OC1COc1c2occc2cc2ccc(=O)oc12 (stereo not drawn) please.
> 100 µM (inactive)

Report GI50 for `CN/C(=N\N=C1/C(=O)Nc2ccccc21)SCC(=O)c1ccc(Br)cc1` please.
6.82 µM (inactive)

Report GI50 for `O=S1(=O)CS(=O)(=O)OCCCO1` please.
> 100 µM (inactive)

Report GI50 for `O=S1(=O)CCN(Cc2ccccn2)CC1` please.
> 100 µM (inactive)

Report GI50 for `Cn1c2cc(Cl)ccc2c2ccc3c(c21)C(=O)C=CC3=O` please.
> 57 µM (inactive)

Report GI50 for `CCC1=C(C)C(=O)N/C1=C\c1[nH]c(C)c([C@H](C)CCN)c1C` please.
16.9 µM (inactive)

Report GI50 for `NC(=O)c1cc(N(CCO)CCO)c([N+](=O)[O-])cc1[N+](=O)[O-]` please.
> 100 µM (inactive)

Report GI50 for `O=c1c2c(sc3ccccc13)NCN(CCc1ccccc1)C2` please.
70.5 µM (inactive)

Report GI50 for `COc1cc(NS(C)(=O)=O)ccc1N1Cc2c[nH]c3ccc4nc(C)cc1c4c23` please.
> 100 µM (inactive)

Taken from ChEMBL document CHEMBL1201862.
